# systemTested: Kappa-type opioid receptor (Cavia porcellus)
# Sequence (P41144 whole entry): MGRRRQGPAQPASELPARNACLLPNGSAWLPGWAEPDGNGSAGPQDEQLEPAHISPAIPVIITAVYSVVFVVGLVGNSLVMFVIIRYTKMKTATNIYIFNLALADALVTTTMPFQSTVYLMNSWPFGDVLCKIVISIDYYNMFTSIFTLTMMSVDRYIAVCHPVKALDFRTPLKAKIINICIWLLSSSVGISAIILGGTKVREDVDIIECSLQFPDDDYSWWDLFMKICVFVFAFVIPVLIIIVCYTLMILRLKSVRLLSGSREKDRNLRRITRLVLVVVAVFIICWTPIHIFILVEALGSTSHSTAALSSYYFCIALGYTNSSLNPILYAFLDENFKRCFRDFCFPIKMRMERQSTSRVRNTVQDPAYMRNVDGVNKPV
# experimentNotes: Binding affinity to guinea pig kappa opioid receptor
pKi: −log10 of the molar value.
assayEndpoint: pKi

molsmiles=COc1ccc2c3c1O[C@H]1c4[nH]c5ccccc5c4C[C@@]4(O)[C@@H](C2)N(CC2CC2)CC[C@]314 observedvalue=5.41

====

# experimentNotes: Displacement of [3H]NTI from delta opioid receptor in Hartley guinea pig brain membrane
# Format: cell membranes, Cavia porcellus
Note to self: Ki under 6 nM means 1, ties and anything higher get 0.

molsmiles=COc1ccc2c3c1O[C@H]1c4c(c5cccc6c5n4CCCC6)C[C@@]4(O)[C@@H](C2)N(CC2CC2)CC[C@]314 classname=0
molsmiles=Oc1ccc2c3c1O[C@H]1c4[nH]c5c6c(ccc5c4C[C@@]4(O)[C@@H](C2)N(CC2CC2)CC[C@]314)CCCC6 classname=0
molsmiles=Oc1ccc2c3c1O[C@H]1c4c(c5cccc6c5n4CCC6)C[C@@]4(O)[C@@H](C2)N(CC2CC2)CC[C@]314 classname=1
molsmiles=Oc1ccc2c3c1O[C@H]1c4c(c5cccc6c5n4CC6)C[C@@]4(O)[C@@H](C2)N(CC2CC2)CC[C@]314 classname=1
molsmiles=Oc1ccc2c3c1O[C@H]1c4c(c5cccc6c5n4CCCC6)C[C@@]4(O)[C@@H](C2)N(CC2CC2)CC[C@]314 classname=1
molsmiles=CCn1c2c(c3cccc(C)c31)C[C@@]1(O)[C@H]3Cc4ccc(OC)c5c4[C@@]1(CCN3CC1CC1)[C@H]2O5 classname=0
molsmiles=Oc1ccc2c3c1O[C@H]1c4[nH]c5ccccc5c4C[C@@]4(O)[C@@H](C2)N(CC2CC2)CC[C@]314 classname=1
molsmiles=COc1ccc2c3c1O[C@H]1c4c(c5cccc6c5n4CCC6)C[C@@]4(O)[C@@H](C2)N(CC2CC2)CC[C@]314.CS(=O)(=O)O classname=0

====

# Species: Cavia porcellus
# experimentNotes: Selectivity for delta opioid receptor over kappa opioid receptor in Hartley guinea pig brain membrane
# Type: cell membranes
Note to self: Selectivity ratio under 20 means class 1, ties and anything higher get class 0.

molecule=Oc1ccc2c3c1O[C@H]1c4[nH]c5c6c(ccc5c4C[C@@]4(O)[C@@H](C2)N(CC2CC2)CC[C@]314)CCCC6 classname="class 1"
molecule=COc1ccc2c3c1O[C@H]1c4c(c5cccc6c5n4CCCC6)C[C@@]4(O)[C@@H](C2)N(CC2CC2)CC[C@]314 classname="class 1"
molecule=Oc1ccc2c3c1O[C@H]1c4c(c5cccc6c5n4CCCC6)C[C@@]4(O)[C@@H](C2)N(CC2CC2)CC[C@]314 classname="class 1"
molecule=CCn1c2c(c3cccc(C)c31)C[C@@]1(O)[C@H]3Cc4ccc(OC)c5c4[C@@]1(CCN3CC1CC1)[C@H]2O5 classname="class 0"
molecule="Oc1ccc2c3c1O[C@H]1c4[nH]c5ccccc5c4C[C@@]4(O)[C@@H](C2)N(CC2CC2)CC[C@]314 [NALTRINDOLE]" classname="class 0"
molecule=Oc1ccc2c3c1O[C@H]1c4c(c5cccc6c5n4CC6)C[C@@]4(O)[C@@H](C2)N(CC2CC2)CC[C@]314 classname="class 0"
molecule=Oc1ccc2c3c1O[C@H]1c4c(c5cccc6c5n4CCC6)C[C@@]4(O)[C@@H](C2)N(CC2CC2)CC[C@]314 classname="class 0"
molecule=COc1ccc2c3c1O[C@H]1c4c(c5cccc6c5n4CCC6)C[C@@]4(O)[C@@H](C2)N(CC2CC2)CC[C@]314.CS(=O)(=O)O classname="class 0"
